biological target: AfChiA1 (Aspergillus fumigatus); experiment: biochemical; assay type: biochemical; details: read-out: % inhibition at 1 mM
Values of inhibition at 1000 µM greater than or equal to 40% map to T; values below map to F.

As a guide, the following entries are already answered.
CCC(=O)Nc1nnc(S(N)(=O)=O)s1 T
O=C(Nc1nnc(-c2ccccc2)s1)C(F)(F)F T
COc1cccc(CSc2nnc(NC(C)=O)s2)c1 F

q: Check the entry O=C(Nc1nnc(N2CCN(c3cccc(Cl)c3)CC2)s1)C(F)(F)F : does inhibition at 1000 µM equal or exceed 40%?
a: F

q: Check the entry NS(=O)(=O)c1nnc(NC(=O)c2ccccc2)s1 : does inhibition at 1000 µM equal or exceed 40%?
a: T

----------
molecular target: AfChiA1 (Aspergillus fumigatus, UniProt Q873Y0); assay: biochemical; type: biochemical
Sequence (Q873Y0 29-335): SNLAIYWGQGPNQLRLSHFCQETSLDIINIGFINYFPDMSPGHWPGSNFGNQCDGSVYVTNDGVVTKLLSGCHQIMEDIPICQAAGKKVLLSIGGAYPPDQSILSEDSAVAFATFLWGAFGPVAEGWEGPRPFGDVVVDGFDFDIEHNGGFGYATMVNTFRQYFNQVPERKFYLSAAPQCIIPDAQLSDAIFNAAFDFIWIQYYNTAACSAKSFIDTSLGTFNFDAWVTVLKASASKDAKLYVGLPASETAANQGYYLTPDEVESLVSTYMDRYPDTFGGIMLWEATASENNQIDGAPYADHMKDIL
assayMetric: inhibitory activity against AfChiA1 (in words)

Solved entries (count: 4):
sampleSmiles	valueObserved
CC(=O)Nc1nncs1	abrogate activity
O=C(CCl)Nc1nnc(C(F)(F)F)s1	reduction in activity
CC(C)Cc1nnc(NC(=O)CCl)s1	reduction in activity
CCC(=O)Nc1nnc(S(N)(=O)=O)s1	reduction in activity

Consider now this further compound.
q: Returns the measured inhibitory activity against AfChiA1 (in words) for the input compound. Input: CC(=O)Nc1nnc(C)s1
a: abrogate activity

----------
molecular target: AfChiA1 (Aspergillus fumigatus, UniProt Q873Y0); assay: biochemical; assay type: biochemical; conditions: Table 3; 4-parameter logistic fit
# Hill slope per entry
// keep it numeric: no unit symbol after the value

Solved entries (count: 4):
CC(=O)Nc1nnc(S)s1 1.1
NS(=O)(=O)c1nnc(NC(=O)c2ccccc2)s1 0.5
CC(=O)Nc1nnc(-c2ccccc2)s1 0.5
CC(=O)Nc1nnc(C(F)(F)F)s1 1.1

Consider now this further molecule.
q: Returns the measured Hill slope for the input molecule. Input: CC(=O)Nc1nnc(Br)s1
a: 0.7
